# STUDY_SYSTEM: pooled human IgG (human IgG1,2,3 and 4)
Below: a set of entries, each annotated with reported Enzyme Activity Endpoint Assay: scIgG.
PARAMETER_MEASURED: Enzyme Activity Endpoint Assay: scIgG (ng/µL)

PROTEIN	PARAMETER_MEASURED	UNIT_NAME	MEASURED_RESULT
PRT-177 (protein) MANQEIRYSEVTPYHIKTVWTDGVKPPTDFIKGEDVFHAPYKAHQGWYDITKAFDGGDDLLCGAATAGNMLHWWFDQNSTQIEAYLKKHPDKQKINFNGEQMFDVKEAIDTKNSQTNSELFNYFKEKAFPYLSTKHLGVFPDHVIDMFINGYRLSLTNHGPTPVKRQTKDPRGGIFDAVFGRGDSTKLLTSRHDFKEKTLNDISQLIKQELQSGKALGLSHTYANVRINHVINLWGADFDAEGNLEAIYVTDSDSNASIGMKKYFVGKNASGKVAISAKEIEDENIGAQVLGLFTLSTGKKSWEKTN	Enzyme Activity Endpoint Assay: scIgG	ng/µL	426
PRT-283 (protein) MVTSVWTKGVTPPAKFTQGEDVFHAPYDANQGWYDITKTFNGKDDLLCGAATAGNMLHWWFDQNKEKIEAYLKKHPDKQKIMFGDQELLDVRKVINTKGDQTNSELFNYFRDKAFPNLSARRIGVMPDLVLDMFINGYYLNVYKTQTTDVNRTYQEKDRRGGIFDAVFTRGDQSKLLTSRHDFKEKNLKEISDLIKKELTEGKALGLSHTYANVRISHVINLWGADFDSNGNLKAIYVTDSDSNASIGMKKYFVGVNSAGKVAISAKEIKEDNIGAQVLGLFTLSTGQDSWNQTN	Enzyme Activity Endpoint Assay: scIgG	ng/µL	91
PRT-292 (protein) MVTSVWTKGVTPPADFTQGEDVFHAPYDANQGWYDITKTFNGKDDLLCGAATAGNMLHWWFDQNKEYIEAYLKKHPEKQKIMFGDQELLDVRKAINTKGSQKNSELFNYFRDKAFPNLSARRLGVMPDLVLDMFINGYYLNVTKTQTTDVNRTYQEKDKRGGIFDAVFTRGDQSKLLTSRHDFKEKGLKEISDLIKQELTEGKALGLSHTYANVRISHVINLWGADFDSDGNLKAIYVTDSDSNASIGMKKYFVGVNSAGKVAISAKEIKEDNIGAQVLGLFTLSTGQDIWNQTN	Enzyme Activity Endpoint Assay: scIgG	ng/µL	0
PRT-189 (protein) MANQEIRYSEVTPYHVTSVWTKGVTPPDHDFANFTQGEDVFHAPYVANQGWYDITKTFNGKDDLLCGAATAGNMLHWWFDQNKDQIKRYLEEHPEKQKINFNGEQMFDVKEAIDTKNHQLDSKLFEYFKEKAFPYLSTKHLGVFPDHVIDMFINGYRLSLTNHGPTPVKEGSKDPRGGIFDAVFTRGDQSKLLTSRHDFKEKNLKEISDLIKKELTEGKALGLSHTYANVRINHVINLWGADFDSNGNLKAIYVTDSDSNASIGMKKYFVGVNSAGKVAISAKEIKEDNIGAQVLGLFTLSTGQDSWNQTN	Enzyme Activity Endpoint Assay: scIgG	ng/µL	101
PRT-98 (protein) MANQEIRYSEVTPYHVTSVWTKGVTPPAKFTQGEDVFHAPYVANQGWYDITKTFNGKDDLLCGAATAGNMLHWWFDQNKEKIEAYLKKHPDKQKIMFGDQELLDVRKVINTKGDQTNSELFNYFRDKAFPGLSARRLGVMPDLVLDMFINGYYLNVYKTQTTDVNRTYQEKDRRGGIFDAVFTRGDQSKLLTSRHDFKEKNLKEISDLIKKELTEGKALGLSHTYANVRINHVINLWGADFDSNGNLKAIYVTDSDSNASIGMKKYFVGVNSAGKVAISAKEIKEDNIGAQVLGLFTLSTGQDSWNQTN	Enzyme Activity Endpoint Assay: scIgG	ng/µL	0
PRT-307 (protein) MQITSVWTKGVTPLTPEQFRKNNEDVIHAPYLAHQGWYDITKAFDGKDNLLCGAATAGNMLHWWFDQNKTEIEAYLSKHPEKQKIIFNNQELFDLKAAIDTKDSQTNSQLFNYFRDKAFPNLSARQLGVMPDLVLDMFINGYYLNVGKTQSTDVNRPYQDKDKRGGIFDAVFTRGDQTTLLTARHDLKNKGLNDISTIIKQELTEGRALALSHTYANVSISHVINLWGADFNAEGNLEAIYVTDSDANASIGMKKYFVGRNAHGHVAISAKKIEGENIGAQVLGLFTLSSGKDIWQKLS	Enzyme Activity Endpoint Assay: scIgG	ng/µL	614
PRT-491 (protein) MVTSVWTKGVTPPTDFIYGEDVLHAPYKAGQGWYDITKTFNGKDNLLCGAATAGNMLHWWFDQNKEQIENYLKKHPEKQKIIFNNQELFDLKAAIDTKDSQLDSKLFEYFKEKAFPYLSTKHLGVFPDHVIDMFINGYRLSLTNHGPTPVKRGSKDKRGGIFDAVFTRGVQSKLLTNRHDLKNKTLKEISDLIKQELTEGKALGISHTYANVRINHVINLWGADFDAEGNLEAIYVTDSDTNASIGMKKYFVGVNSNGKVAISAKEIEEDNIGAQVLGLFTLSTGQDIWNQTNLEHHHHHH	Enzyme Activity Endpoint Assay: scIgG	ng/µL	331
PRT-192 (protein) MANQEIRYSEVTPYHVTSVWTKGVTPPANFTQGEDVFHAPYVANQGWYDITKTFNGKDDLLCGAATAGNMLHWWFDQNKDQIKRYLEEHPEKQKINFNGEQMFDVKEAIDTKNHQLDSKLFEYFKEKAFPYLSTKHLGVFPDHVIDMFINGYRLSLTNHGPTPVKEGSKDPRGGIFDAVFTRGDQSKLLTSRHDFKEKNLKEISDLIKKELTEGKALGLSHTYANVRINHVINLWGADFDSNGNLKAIYVTDSDDKKLTISNASIGMKKYFVGVNSAGKVAISAKEIKEDNIGAQVLGLFTLSTGQDSWNQTN	Enzyme Activity Endpoint Assay: scIgG	ng/µL	461
